This section presents compounds with their documented pIC50 values.
Molecular target: Kdr (Homo sapiens, UniProt P35968)
Construct: Kinases are expressed as either kinase domains or full length constructs; made in house
Sequence (P35968 20-1356, species assumed): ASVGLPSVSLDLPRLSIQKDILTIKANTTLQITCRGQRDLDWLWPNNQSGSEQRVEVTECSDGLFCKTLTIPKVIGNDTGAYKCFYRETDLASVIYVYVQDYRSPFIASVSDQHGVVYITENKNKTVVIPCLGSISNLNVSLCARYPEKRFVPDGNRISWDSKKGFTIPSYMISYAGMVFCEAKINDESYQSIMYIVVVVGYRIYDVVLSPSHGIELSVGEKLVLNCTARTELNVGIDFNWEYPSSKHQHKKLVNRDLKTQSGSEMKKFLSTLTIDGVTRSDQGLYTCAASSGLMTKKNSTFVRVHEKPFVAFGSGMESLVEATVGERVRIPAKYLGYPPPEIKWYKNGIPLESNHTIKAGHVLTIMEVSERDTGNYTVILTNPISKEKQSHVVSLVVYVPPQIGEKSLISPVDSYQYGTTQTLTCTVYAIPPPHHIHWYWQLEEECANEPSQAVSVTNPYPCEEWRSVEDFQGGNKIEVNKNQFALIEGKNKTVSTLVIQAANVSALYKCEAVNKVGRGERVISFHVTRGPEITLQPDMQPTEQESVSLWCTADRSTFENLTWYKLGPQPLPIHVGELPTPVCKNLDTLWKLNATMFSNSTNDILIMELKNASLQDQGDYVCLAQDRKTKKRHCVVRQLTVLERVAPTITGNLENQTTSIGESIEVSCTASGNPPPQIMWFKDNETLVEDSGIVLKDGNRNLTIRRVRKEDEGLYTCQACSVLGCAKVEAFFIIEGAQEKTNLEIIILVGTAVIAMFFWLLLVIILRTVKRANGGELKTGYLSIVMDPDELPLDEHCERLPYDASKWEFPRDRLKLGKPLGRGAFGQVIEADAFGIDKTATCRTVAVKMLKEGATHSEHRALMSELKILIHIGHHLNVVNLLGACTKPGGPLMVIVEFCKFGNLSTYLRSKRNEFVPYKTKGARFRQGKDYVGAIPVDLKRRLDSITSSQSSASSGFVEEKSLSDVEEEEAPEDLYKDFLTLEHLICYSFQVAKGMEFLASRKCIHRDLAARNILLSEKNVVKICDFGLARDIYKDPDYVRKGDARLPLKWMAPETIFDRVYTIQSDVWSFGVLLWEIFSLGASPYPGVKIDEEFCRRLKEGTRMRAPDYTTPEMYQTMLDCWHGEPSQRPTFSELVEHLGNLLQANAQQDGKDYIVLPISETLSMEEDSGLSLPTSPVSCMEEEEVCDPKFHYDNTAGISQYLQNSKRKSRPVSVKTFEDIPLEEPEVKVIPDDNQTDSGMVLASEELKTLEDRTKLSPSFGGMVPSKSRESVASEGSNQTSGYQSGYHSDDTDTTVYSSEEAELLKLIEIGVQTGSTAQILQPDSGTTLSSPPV
Test: Kinase inhibition assay (33P transfer), Kdr
Format: biochemical
Conditions: Table 3, class symbols; read-out: KDR-1
pIC50: −log10 of the molar value.
Measured metric: pIC50

INSERT INTO results (smiles_data, recorded_value) VALUES
  ('COc1cc(Nc2ncnc(NC(=O)Cc3ccccc3)n2)cc(OC)c1OC', '4.94 to 5.05'),
  ('COC(=O)c1ccc(-c2cc(Nc3ncnc(Nc4cc(=O)n(-c5ccccc5)[nH]4)n3)[nH]n2)cc1', '5.13 to 5.29'),
  ('C#Cc1cccc(Nc2ncnc(Nc3cc(-c4ccccc4)n[nH]3)n2)c1', '5.17 to 5.95'),
  ('c1ccc(Nc2ncccc2-c2ncnc(Nc3ccc(N4CCOCC4)cc3)n2)cc1', '5.25 to 6.03'),
  ('COc1cc(C)c(Nc2ncnc(Nc3cc(-c4ccc(C)cc4)n[nH]3)n2)cc1OC', '< 4.97'),
  ('COc1cc(Nc2ncnc(Nc3cccc(Cl)c3)n2)cc(OC)c1', '5.17 to 5.95'),
  ('COC(=O)c1ccc(-c2cc(Nc3ncnc(NCCNC(C)=O)n3)[nH]n2)cc1', '< 4.94'),
  ('COc1cccc(Nc2ncnc(Nc3ccc4c(cnn4Cc4ccccc4)c3)n2)c1', '5.08 to 5.25');
